Test system: SNB-19 CNS
Assay: NCI-60 one-dose screen, 48 h (100 = growth as untreated, 0 = no growth, -100 = all killed)
Details: 10 µM unless noted
The panel holds about 83,000 compounds, 20% with a hit somewhere; the sample as a whole holds those more often.
parameter.measured: growth (%)
Give just the number in %; leave the unit off.

compound	assayed.system	growth, %
Cc1nc2sc(C(=O)Nc3cccc(Br)c3)c(N)c2cc1C(=O)c1ccc(C(F)(F)F)cc1	SNB-19 CNS	82.3
CC(C)CN(C(=O)c1ccc(Cl)cc1)c1c(N)n(CC(C)C)c(=O)[nH]c1=O	SNB-19 CNS	96.6
COc1ccc(C(=O)c2cc3c(N)c(C(=O)Nc4cccc(Cl)c4C)sc3nc2C)cc1	SNB-19 CNS	39.9
Nc1c(C(=O)Nc2ccc(Cl)cc2)cc(-c2nc3ccccc3s2)c(=O)n1NS(=O)(=O)c1ccc(Cl)cc1	SNB-19 CNS	99.8
CC(=O)Nc1ccc(S(=O)(=O)NC2CCCCC2)cc1	SNB-19 CNS	96.2

Hello, I am looking for reported growth with SNB-19 CNS for Cc1[nH]c(C(=O)Nc2ccccc2OCc2cccc(C(=O)NCCN)c2)c(Cl)c1Cl . Could you help?
58.3

Proceed to COc1cc(C2CC(c3cccc(Nc4ccncc4)c3)=NN2c2ccccc2)cc(OC)c1OC (centres undefined)
68.1

Proceed to CCC(C)N(CCNc1cc(OC)cc2cccnc12)CCC(C)C (centres undefined)
96.2

Proceed to COc1ccc(-c2nc(N/N=C/c3c[nH]c4ccccc34)nc(N3CCOCC3)c2C#N)cc1
109
